- experiment_summary: NCI Yeast Anticancer Drug Screen. Data for the rad50 strain (AID 155);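 note: 0% = growth of vehicle-only cultures of the same strain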
- run_parameters: S. cerevisiae rad50 strain growth inhibition; at 5.0 µM (retest, dose inferred, filed as 0.5); hits give high values
This is part of a sample that, as a whole, favours compounds with a hit. Of some 79,000 tested, about 15% had one in any assay.
The molecules listed here are annotated with their growth inhibition.
The reply should be a number in %, with the unit left off.

{"molecule": "CCOC(=O)c1ccc2c(c1)Cc1cc([N+](=O)[O-])ccc1-2", "result_number": 1}
{"molecule": "O=C1CC(c2ccccc2)NN1 (stereo not drawn)", "result_number": -108}
{"molecule": "CC(c1ccccc1)n1c2ccccc2c2c(N)ncnc21 (stereo not drawn)", "result_number": 6}
{"molecule": "CC(C)c1cc(C(C)C)c(Cl)c(Cl)c1O (tested in a mixture with another compound)", "result_number": 1}
{"molecule": "O=C(/C=C(\\C(=O)c1ccccc1)N(/C(=C/C(=O)c1ccccc1)C(=O)c1ccccc1)c1ccccc1)c1ccccc1", "result_number": 2}
{"molecule": "[Cu+2].[O-]/N=C/c1cccc(O)c1[O-].[O-]/N=C/c1cccc(O)c1[O-]", "result_number": -16}
{"molecule": "CN(C)CC(CN(C)C)C(=O)c1ccc2c(c1)OCO2", "result_number": -8}
{"molecule": "COC(=O)c1ccc(-c2ccccc2)cc1", "result_number": -1}

Given CN(C)C1=NC(N(C)C)=C2C=CC=C12 , respond with its growth inhibition. -3

Given Cc1ccc(N2C(c3ccccc3)=CC(=C3C=CC(=O)C=C3)C=C2c2ccccc2)cc1 , respond with its growth inhibition. 9

Given O=C(O)CCC12CCCCC1=NC1(CCCCC1)NC2=O (stereo not drawn) , respond with its growth inhibition. 2

Given N#CC(Nc1cccc(C(F)(F)F)c1)c1ccccc1C(F)(F)F (stereo not drawn) , respond with its growth inhibition. -4

Given C#CCN1CCN(C(=S)N/N=C(\C)c2ccccn2)CC1 , respond with its growth inhibition. 22

* * *

- experiment_summary: NCI Yeast Anticancer Drug Screen. Data for the mlh1 rad18 strain (AID 175)
- run_parameters: S. cerevisiae mlh1 rad18 strain growth inhibition; at 50.0 µM; hits give high values
The panel holds about 79,000 compounds, 15% with a hit somewhere; the sample as a whole holds those more often.
The compounds listed here are annotated with their growth inhibition.
The reply should be a number in %, with the unit left off.

// worked examples, growth inhibition included
{"compound": "COc1ccc(-c2cc(-c3ccc(OC)cc3OC)[n+](C)c(-c3ccc(OC)cc3OC)c2)cc1", "growth inhibition [%]": 93}
{"compound": "COC(=O)c1nc(NC#N)[nH]c(=O)c1CCCCCc1cnc(NC#N)nc1", "growth inhibition [%]": -6.1}
{"compound": "CCCOC(=O)C1CCCCC1C(=O)OCCC (stereo not drawn)", "growth inhibition [%]": -12.7}
{"compound": "COC(=O)Nc1nc2ccc(CCC(=O)c3c(C)oc(C)c3-c3ccc(NC(C)=O)cc3)cc2[nH]1", "growth inhibition [%]": 60.7}
{"compound": "CC(CN(C)C)C(=O)/C=C/c1c(Cl)cccc1Cl (stereo not drawn)", "growth inhibition [%]": 96.5}
{"compound": "Cc1ccccc1C1SCc2nc3ccccc3n21 (stereo not drawn)", "growth inhibition [%]": -25.1}

Now for another entry.
Given Cc1ccc([S@](=O)c2occc2C=O)cc1 , respond with its growth inhibition. 88.2

* * *

- experiment_summary: NCI Yeast Anticancer Drug Screen. Data for the bub3 strain (AID 167)
- run_parameters: S. cerevisiae bub3 mutant strain, at 5.0 µM (retest, dose inferred, filed as 0.5)
About 79,000 compounds went through this panel and 15% of them were active in at least one assay; those are over-represented in the sample as a whole. Calls of active or inactive are those of the source. Rule as the data show it: active = growth inhibition above about 70%; inactive = the rest.
Permitted responses: Yes for active, No for inactive

Test call, this molecule: O=C1C=CC(=O)C1=Cc1ccc(Cl)c(Cl)c1 Yes

Test call, this molecule: CC(C)(C)OC(=O)N(CCCCNCc1ccc2ccccc2c1)CCCNCc1ccc2ccccc2c1 No

Test call, this molecule: COc1ccc(C(=O)C2C(=O)C(=O)OC2C2OC(=O)C(=O)C2C(=O)c2ccc(OC)cc2)cc1 (stereo not drawn) No

* * *

- experiment_summary: NCI Yeast Anticancer Drug Screen. Data for the sgs1 mgt1 strain (AID 161);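 note: 0% = growth of cultures given vehicle only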
- run_parameters: S. cerevisiae sgs1 mgt1 strain, at 5.0 µM (retest, dose inferred, filed as 0.5), hits give high values
The panel holds about 79,000 compounds, 15% with a hit somewhere; the sample as a whole holds those more often.
quantity_kind: growth inhibition (%)
The reply should be a number in %, with the unit left off.

{"compound": "COC1=CC23C=CC1[C@@H](c1ccccc1)C2=C(C)C(=O)N3C(=O)NC1CCCCC1 (some centres not stated)", "growth inhibition [%]": 1}
{"compound": "C=C1CCC[C@@]2(C)CC[C@@H](/C(C)=C\\C=C\\C(C)(C)O)C[C@H]12", "growth inhibition [%]": 2}
{"compound": "O=C(Nc1ccc2c(c1)Cc1cc([N+](=O)[O-])c(F)cc1-2)C(F)(F)F", "growth inhibition [%]": 3}
{"compound": "Cc1c2ncccc2cc2oc3ccccc3c(=O)c12", "growth inhibition [%]": 37}
{"compound": "CC(C)SC(=S)Nc1cc(C(F)(F)F)ccc1Cl", "growth inhibition [%]": 0}
{"compound": "Cc1ccc(Nc2nc3c(s2)C(=O)c2ccccc2C3=O)cc1", "growth inhibition [%]": 34}
{"compound": "CC(N)C1C(C)CC2C3CC=C4CC(O)CCC4(C)C3CCC21C (configuration not stated)", "growth inhibition [%]": 83}
{"compound": "CC(C)c1ccc2c(c1)CCC1C(C)(C(=O)O)CCCC21C (configuration not stated)", "growth inhibition [%]": 16}

Given O=C(OC1C=C=CS(=O)(=O)CC#C/C=C\1)c1cnc2ccccc2n1 (configuration not stated) , respond with its growth inhibition. -28

Given CCCCCCC[CH2][Sn]([CH2]CCCCCCC)([O]c1cccc2cccnc12)[O]c1cccc2cccnc12 , respond with its growth inhibition. 14

Given Cc1nc2c(cnn2C)cc1CCc1ccccc1 , respond with its growth inhibition. 5

Given CCOC(=O)C(=O)NNc1ccccc1 , respond with its growth inhibition. 13

* * *

- experiment_summary: NCI Yeast Anticancer Drug Screen. Data for the mlh1 rad18 strain (AID 175)
- run_parameters: S. cerevisiae mlh1 rad18 strain growth inhibition; at 5.0 µM (retest, dose inferred, filed as 0.5)
The panel holds about 79,000 compounds, 15% with a hit somewhere; the sample as a whole holds those more often. The source made the active and inactive calls. Rule as the data show it: active = growth inhibition above about 70%; inactive = the rest.
Permitted responses: YES = active, NO = inactive

Take a look at these entries with their results.
{"compound": "Cc1c2cc[n+](C)cc2c(COC2OC(CO)C(O)C2O)c2c3ccccc3n(C)c12 (stereo unspecified)", "class_label": "NO"}
{"compound": "O=C(O)/C=C/c1ccc(Cl)cc1Cl", "class_label": "NO"}

Test call, this compound: C/C(=N\NC(=S)N1CCN(c2cnccn2)CC1)c1ccccn1 NO

Test call, this compound: CCCCCCCCCCCC(=O)OCCOC(=O)CCCCCCCCCCC NO

Test call, this compound: O=C1OC(CC(=O)c2ccccc2Cl)C(Cl)=C1Cl (stereo unspecified) NO

Test call, this compound: COc1ccc(CNC(C#N)c2ccccc2)cc1OC (stereo unspecified) NO

* * *

- experiment_summary: NCI Yeast Anticancer Drug Screen. Data for the cln2 rad14 strain (AID 165);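 note: 0% = growth equal to vehicle treated cultures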
- run_parameters: S. cerevisiae cln2 rad14 strain, at 5.0 µM (retest, dose inferred, filed as 0.5), hits give high values
This is part of a sample that, as a whole, favours compounds with a hit. Of some 79,000 tested, about 15% had one in any assay.
The compounds listed here are annotated with their growth inhibition.
The reply should be a number in %, with the unit left off.

// worked examples, growth inhibition included
{"compound": "COC1CC(OC(=O)c2ccccc2)C2OC(c3ccccc3)OCC2O1 (stereo not given)", "growth inhibition [%]": 7}
{"compound": "CCN(CC)c1ccc(N=Nc2ccc(-c3nc4ccc[n+](C)c4s3)cc2)cc1", "growth inhibition [%]": 100}
{"compound": "S=C(Nc1ccc2cn[nH]c2c1)Nc1ccc2cn[nH]c2c1", "growth inhibition [%]": -25}
{"compound": "CC1(C)C2CCC1(CS(=O)O)C(=O)C2.[Ag] (stereo not given)", "growth inhibition [%]": 99}
{"compound": "O[C@H]1c2cccn2-c2ccccc2S[C@H]1c1ccccc1", "growth inhibition [%]": 6}

Now for another entry.
Given O=C1NCCCNCCCNCCCNC(=O)c2cccc1n2 , respond with its growth inhibition. 18

* * *

The molecules listed here are annotated with their growth inhibition.
- experiment_summary: NCI Yeast Anticancer Drug Screen. Data for the mlh1 rad18 strain (AID 175)
- run_parameters: S. cerevisiae mlh1 rad18 strain growth inhibition; at 50.0 µM; hits give high values
Compounds without any hit were thinned out: in the full panel of roughly 79,000, 15% have a hit. Active and inactive are the calls of the source. Rule as the data show it: active = growth inhibition above about 70%; inactive = the rest.

// worked examples, growth inhibition included
{"molecule": "Cc1ccc(NCCN(C)C)c2c(=O)c3ccc(O)cc3sc12", "growth inhibition": "99.2% (active)"}
{"molecule": "OC(C1CCCC1=N/N=C1/CCCC1C(O)(C(F)(F)Cl)C(F)(F)Cl)(C(F)(F)Cl)C(F)(F)Cl (stereo unspecified)", "growth inhibition": "92% (active)"}
{"molecule": "CC(=O)OCc1cc(=O)n(C)c2c3c4c(cc12)c(C)cc(=O)n4CO3", "growth inhibition": "89.9% (active)"}

Given COc1ccccc1NC(=S)N/N=C(/C)c1ccccn1 , respond with its growth inhibition. -2.3% (inactive)

Given CC(=NCC(=O)O)c1ccccc1 , respond with its growth inhibition. -5.7% (inactive)

Given Oc1cc(Br)cc2cc(Cl)cnc12 , respond with its growth inhibition. 75.5% (active)

src = PubChem BioAssay (NCI)
